- target or system: T1, ROR1 extracellular domain Fc-fusion, dimer (human, UniProt Q01973 30-406)
- T1 construct: also called ROR1 dimer; hROR1 dimeric ECD-Fc fusion protein; not shown: Fc part
- T1 sequence (Q01973 30-406): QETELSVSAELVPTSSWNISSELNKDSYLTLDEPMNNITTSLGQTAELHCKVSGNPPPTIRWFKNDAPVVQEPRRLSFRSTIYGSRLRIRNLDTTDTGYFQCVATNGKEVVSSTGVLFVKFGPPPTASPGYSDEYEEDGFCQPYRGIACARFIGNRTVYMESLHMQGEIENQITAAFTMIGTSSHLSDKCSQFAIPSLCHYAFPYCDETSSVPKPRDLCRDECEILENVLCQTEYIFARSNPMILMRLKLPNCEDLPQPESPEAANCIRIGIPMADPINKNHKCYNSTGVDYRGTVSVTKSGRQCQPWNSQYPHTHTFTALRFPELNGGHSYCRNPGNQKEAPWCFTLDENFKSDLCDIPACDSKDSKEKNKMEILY
- assay method text: SPR, immobilised ROR1 dimer, antibody injected, 1:1 model
readout type: koff (s⁻¹)
Expressed in s⁻¹, but write only the number.

Here's what some known entries look like.
Kindly note the recorded koff for Antibody 601-50 (antibody, V domains shown) VH: QVQLQQSGAEVKKPGASVKVSCKASGYTFSRYYIHWVRRAPGQGLEWMGLINPGGGSTNYAQKFQGRVTMTRDTSTNTVYLELSSLRSDDTAVYYCARDYGTIDARRFDFWGQGTLVTVSS VL: QSALTQPPSASGTPGQRVTISCPGSSSNIGSNYVYWYQQLPGTAPKLLIYRNNQRPSGVPDRFSGSKSGTSATLGITGLQTGDEADYYCGTWDSSLSAYVFGTGTKVTVL , which is 0.0011

Consider Antibody 601-14 (antibody, V domains shown) VH: QVQLVQSGAEVKKPGESLKISCKDSGYSFTNYWLGWVRQMPGKGLEWMGIIYPGDSDTRYSPSFRGQVTISADKSISTAYLQWSSLKASDTAMYYCARLNLATHTAFDIWGQGTTVTVSS VL: QSVLTQPASVSGSPGQSITISCTGTSSDVGGYNYVSWYQQHPGKAPKLMIYDVSNRPSGVSNRFSGSKSGNTASLTISGLQAEDEADYYCSSYTSSSTLWVFGGGTKLTVLG . Its measured koff is 0.00066

binder Antibody 601-66 (antibody, V domains shown) VH: QVQLVQSGAEVKEPGASVKVSCKASGYTFRNSGITWVRQAPGQGLEWMGWINPNSGGAMYVDNFQGRATMTRDTSINTAYMELRSLSSDDTAVYYCARGMADLIDVFDIWGQGTLVTVSS VL: TQPALTQPASVSGSPGQSITISCTGTSSDFGDYDYVSWYQQHPGKAPKLMIYDVSDRPSGVSNRFSGSKSGNTASLTISGLQAEDEADYFCSSFTTSSTLVFGGGTKLTVL , koff observed: 0.0051

Lookup result for Antibody 601-147 (antibody, V domains shown) VH: QMQLVQSGAEVKKPGASVKVSCKASGYTFSRYYIHWVRQAPGQGLEWMGLINPGGGSTNYAQKFQGRVTMTRDTSTNTVYLELSSLRSDDTAVYYCARDYGTIDARRFDFWGQGTLVTVSS VL: QSALTQPPSASGTPGQRVTISCSGSSSNIGSNYVYWYQQLPGTAPKLLIYRNNQRPSGVPDRFSGSKSGTSASLAISGLRSEDEADYYCAAWDDSLSGYVFGTGTKVTVL ; measured koff: 0.00063

--- query ---
Reported koff of Antibody 601-65 (antibody, V domains shown) VH: QVQLQQSGPGLVKPSQTLSLTCAISGDSVSSNSATWNWIRQSPSRGLEWLGRTYYRSKWYNDYAVSVKSRIIINPDTSKNQFSLQLNSVTPEDTAVYYCARGVRAFDIWGQGTTVTVSS VL: QSVLTQPPSVSGTPGQRVTIFCSGGSNNIGRSSVYWYRQAAGTAPKLLIYKTDQRPSGVPDRFAASKSGASASLAISGLRSEDEADYHCATWDDSLSAVVFGGGTKLTVL : 0.0072
